- MEASUREMENT_TARGET: T1, EsCas13d, nuclease-dead (Eubacterium siraeum, UniProt B0MS50, R295A;H300A;R849A;H854A)
- T1 sequence: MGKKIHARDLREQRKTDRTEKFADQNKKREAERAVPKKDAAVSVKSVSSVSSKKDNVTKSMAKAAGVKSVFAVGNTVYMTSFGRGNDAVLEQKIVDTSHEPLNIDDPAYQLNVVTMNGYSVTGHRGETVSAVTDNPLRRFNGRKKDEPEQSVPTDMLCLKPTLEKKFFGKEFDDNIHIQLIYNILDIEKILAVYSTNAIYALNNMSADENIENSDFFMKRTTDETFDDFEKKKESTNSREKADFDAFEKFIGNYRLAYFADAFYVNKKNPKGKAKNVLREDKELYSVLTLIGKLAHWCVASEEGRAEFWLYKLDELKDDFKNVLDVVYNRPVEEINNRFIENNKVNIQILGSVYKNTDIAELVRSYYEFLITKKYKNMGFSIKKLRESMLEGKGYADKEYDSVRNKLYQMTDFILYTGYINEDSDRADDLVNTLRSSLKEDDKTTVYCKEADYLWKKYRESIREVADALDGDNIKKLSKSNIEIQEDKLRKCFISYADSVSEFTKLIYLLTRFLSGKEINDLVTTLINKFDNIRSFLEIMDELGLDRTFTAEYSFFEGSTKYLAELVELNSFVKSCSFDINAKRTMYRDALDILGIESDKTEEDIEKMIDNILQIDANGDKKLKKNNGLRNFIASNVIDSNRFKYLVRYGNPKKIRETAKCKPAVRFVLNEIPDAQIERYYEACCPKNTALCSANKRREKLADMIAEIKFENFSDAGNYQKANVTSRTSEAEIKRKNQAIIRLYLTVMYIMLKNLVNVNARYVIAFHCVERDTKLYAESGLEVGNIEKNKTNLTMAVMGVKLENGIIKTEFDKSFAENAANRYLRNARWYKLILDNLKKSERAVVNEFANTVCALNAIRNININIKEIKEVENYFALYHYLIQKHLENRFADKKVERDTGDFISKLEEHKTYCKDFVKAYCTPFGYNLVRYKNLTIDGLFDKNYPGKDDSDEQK
- PROTOCOL_SUMMARY: crRNA (strand 1, pre-loaded); Mg2+; 40 mM Tris-HCl pH 7.5, 150 mM NaCl, 6 mM MgCl2, 1 mM DTT, 0.1% Tween-20, 0.2 mg/ml BSA; 25 C; 10 min per concentration, then washed
- RUN_CONDITIONS: tags: His6-TwinStrep-SUMO cleaved; N-terminal SNAP kept (SNAP-Surface 488); label: 3' end held by stalled T7 RNA polymerase
QUANTITY_KIND: Kd (nM)
Could you give me the number in nM? Just the number is fine.

BINDER	Kd [nM]
target 1 G5U,A9U (mixed) RNA 1: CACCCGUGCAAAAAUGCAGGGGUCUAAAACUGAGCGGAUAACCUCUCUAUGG RNA 2: GGGAAUGGAUCCACAUCUACGAAUUCGUACCAUAGAGAGGUUUUCCUCUCACCGAGAUCGGAAGAGCACACGU	97
target 3 U2A,A12C (mixed) RNA 1: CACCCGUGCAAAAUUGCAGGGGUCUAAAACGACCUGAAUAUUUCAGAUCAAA RNA 2: GGGAAUGGAUCCACAUCUACGAAUUCGUUUUUGAUCUGACAUAUUCAGGACUGCAGAUCGGAAGAGCACACGU	33
target 3 G3U,U22C (mixed) RNA 1: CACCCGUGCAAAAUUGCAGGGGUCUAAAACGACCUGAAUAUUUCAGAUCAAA RNA 2: GGGAAUGGAUCCACAUCUACGAAUUCGUUCUUGAUCUGAAAUAUUCAGUUCUGCAGAUCGGAAGAGCACACGU	28.4

What value of measured Kd is listed for target 3 G3U,G4C (mixed) RNA 1: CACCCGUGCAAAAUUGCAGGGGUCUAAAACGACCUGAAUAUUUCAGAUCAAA RNA 2: GGGAAUGGAUCCACAUCUACGAAUUCGUUUUUGAUCUGAAAUAUUCACUUCUGCAGAUCGGAAGAGCACACGU ? 10.5

Would you mind telling me what Kd value was observed for target 2 MT 5'PFS UAG 3'PFS AGG (mixed) RNA 1: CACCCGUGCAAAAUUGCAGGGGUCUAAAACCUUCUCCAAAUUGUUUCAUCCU RNA 2: GGGAAUGGAUCCACAUCUACGAAUUCUAGAGGAUGAAACAAUUUGGAGAAGAGGAGAUCGGAAGAGCACACGU ? 2.74

Tell me the measured Kd of target 1 G13U,A16C (mixed) RNA 1: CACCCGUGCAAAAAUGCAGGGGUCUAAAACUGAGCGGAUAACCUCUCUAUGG RNA 2: GGGAAUGGAUCCACAUCUACGAAUUCGUACCAUAGCGAUGUUAUCCGCUCACCGAGAUCGGAAGAGCACACGU , please. 68

Which measured Kd value corresponds to target 1 del5,del9 (mixed) RNA 1: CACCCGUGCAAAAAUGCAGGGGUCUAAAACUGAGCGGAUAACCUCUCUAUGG RNA 2: GGGAAUGGAUCCACAUCUACGAAUUCGUACCAUAGAGAGGUUUCCCUCACCGAGAUCGGAAGAGCACACGU ? 15.9

So what does the record say about Kd for target 1 MT 5'PFS CUU 3'PFS AGU (mixed) RNA 1: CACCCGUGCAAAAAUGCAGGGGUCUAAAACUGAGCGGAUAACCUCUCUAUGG RNA 2: GGGAAUGGAUCCACAUCUACGAAUUCCUUCCAUAGAGAGGUUAUCCGCUCAAGUAGAUCGGAAGAGCACACGU ? 48

Fill in the blank: the reported Kd of target 1 U8A,U10A (mixed) RNA 1: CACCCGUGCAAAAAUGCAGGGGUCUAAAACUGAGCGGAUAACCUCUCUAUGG RNA 2: GGGAAUGGAUCCACAUCUACGAAUUCGUACCAUAGAGAGGUAAACCGCUCACCGAGAUCGGAAGAGCACACGU is ____. 12.5

Need Kd of target 3 C1G,C6A (mixed) RNA 1: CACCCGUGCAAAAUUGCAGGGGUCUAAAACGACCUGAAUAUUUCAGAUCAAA RNA 2: GGGAAUGGAUCCACAUCUACGAAUUCGUUUUUGAUCUGAAAUAUUAAGGUGUGCAGAUCGGAAGAGCACACGU , thanks. 30.5

Fill in the blank: the reported Kd of target 2 MT 5'PFS GCA 3'PFS AUG (mixed) RNA 1: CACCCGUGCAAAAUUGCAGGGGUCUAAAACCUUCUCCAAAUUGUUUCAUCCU RNA 2: GGGAAUGGAUCCACAUCUACGAAUUCGCAAGGAUGAAACAAUUUGGAGAAGAUGAGAUCGGAAGAGCACACGU is ____. 8.8

Report Kd for target 2 MT 5'PFS AGG 3'PFS CUG (mixed) RNA 1: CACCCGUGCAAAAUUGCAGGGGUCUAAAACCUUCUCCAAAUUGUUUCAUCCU RNA 2: GGGAAUGGAUCCACAUCUACGAAUUCAGGAGGAUGAAACAAUUUGGAGAAGCUGAGAUCGGAAGAGCACACGU please. 7.4

Which Kd is listed for target 1 insA 3' of 10,insU 3' of 5 (mixed) RNA 1: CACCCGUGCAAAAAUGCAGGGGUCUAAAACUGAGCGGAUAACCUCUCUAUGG RNA 2: GGGAAUGGAUCCACAUCUACGAAUUCGUACCAUAGAGAGGUUAAUCCGUCUCACCGAGAUCGGAAGAGCACACGU ? 14.2

Recorded Kd of target 1 insG 3' of 10,insA 3' of 2 (mixed) RNA 1: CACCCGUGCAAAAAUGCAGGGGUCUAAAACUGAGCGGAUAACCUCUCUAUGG RNA 2: GGGAAUGGAUCCACAUCUACGAAUUCGUACCAUAGAGAGGUUGAUCCGCUCAACCGAGAUCGGAAGAGCACACGU , please. 22.2
